Values from patent US9624215B2

System: normal human neonatal foreskin epidermal keratinocytes (NHEK-F)
Experiment: Cell proliferation inhibition test
Assay type: cell-based
Conditions: Keratinocyte, 72 h, NHEK-F cells, three days incubation, ATPlite or CellTiterGlo, read-out: IC50 (concentration of the compound at which the cell count is reduced by 50%)
reported property: IC50

[[record]]
molecule_smiles = "O=C(O)c1cc(C2CC2)ccc1Nc1cnc2c(ccn2Cc2ccccc2)c1"
result = "≤ 10 nM"

[[record]]
molecule_smiles = "O=C(O)c1cc(Cl)ccc1Nc1ccc2c(ccn2Cc2cccc(OCCN3CCOCC3)c2)c1"
result = "10 to 100 nM"

[[record]]
molecule_smiles = "Cn1ccc2cc(Nc3ncc(C4CC4)cc3C(=O)O)cc(-c3ccccc3C(F)(F)F)c21"
result = "≤ 10 nM"


// below: IC50 requested for another compound
Enquiry: Provide measured IC50 value, entry: `Cn1ccc2cc(Nc3ncc(C4CC4)cc3C(=O)O)cc(-c3ccc(F)cc3F)c21`
Return: ≤ 10 nM

----------
System: normal human neonatal foreskin epidermal keratinocytes (NHEK-F)
Assay: Cell proliferation inhibition test
Format: cell-based
Conditions: Keratinocyte, 72 h, NHEK-F cells, three days incubation, ATPlite or CellTiterGlo, read-out: IC50 (concentration of the compound at which the cell count is reduced by 50%)
reported property: IC50

Sample answers from the record:
[[record]]
molecule_smiles = "O=C(O)c1cc(C2CC2)cnc1Nc1ccc2c(ccn2-c2ccc(F)cc2)c1"
reported_property = "IC50"
result = "≤ 10 nM"

[[record]]
molecule_smiles = "O=C(O)c1cc(C2CC2)cnc1Nc1cccc2c1ccn2-c1ccccc1"
reported_property = "IC50"
result = "≤ 10 nM"

[[record]]
molecule_smiles = "Cn1ccc2cc(Nc3ncc(C4CC4)cc3C(=O)O)cc(-c3cccc(Cl)c3)c21"
reported_property = "IC50"
result = "≤ 10 nM"

[[record]]
molecule_smiles = "O=C(O)c1cc(C2CC2)cnc1Nc1ccc2c(ccn2CC2CCCCC2)c1"
reported_property = "IC50"
result = "≤ 10 nM"

[[record]]
molecule_smiles = "O=C(O)c1cc(C2CC2)ccc1Nc1ccc2c(ccn2-c2cccnc2)c1"
reported_property = "IC50"
result = "≤ 10 nM"

[[record]]
molecule_smiles = "Cn1ccc2cc(Nc3ncc(C4CC4)cc3C(=O)O)cc(-c3cc(F)cc(F)c3)c21"
reported_property = "IC50"
result = "≤ 10 nM"

[[record]]
molecule_smiles = "O=C(O)c1cc(C2CC2)cnc1Nc1ccc2ccn(CC3CCCCC3)c2c1"
reported_property = "IC50"
result = "≤ 10 nM"

[[record]]
molecule_smiles = "Cn1ccc2cc(Nc3ncc(C4CC4)cc3C(=O)O)cc(-c3ccccc3F)c21"
reported_property = "IC50"
result = "≤ 10 nM"


For every listed record, write down its IC50.
1. O=C(O)c1cc(C2CC2)cnc1Nc1ccc2c(ccn2Cc2ccc(F)cc2)c1
2. COc1cccc(Cn2ccc3cc(Nc4ncc(C5CC5)cc4C(=O)O)ccc32)c1
3. Cn1nccc1-c1cc(Nc2ncc(C3CC3)cc2C(=O)O)cc2ccn(C)c12
4. O=C(O)c1cc(Cl)cnc1Nc1ccc2c(ccn2Cc2cccc(OC(F)(F)F)c2)c1
5. O=C(O)c1cc(Cl)ncc1Nc1ccc2c(ccn2Cc2ccccc2)c1
6. Cn1ccc2cc(Nc3ncc(C4CC4)cc3C(=O)O)cc(-c3cccc(C#N)c3)c21
7. O=C(O)c1cc(Cl)ccc1Nc1ccc2c(ccn2-c2ccc(Cl)cc2)c1

Return:
1: ≤ 10 nM; 2: 10 to 100 nM; 3: ≤ 10 nM; 4: 10 to 100 nM; 5: 10 to 100 nM; 6: ≤ 10 nM; 7: ≤ 10 nM

For every listed record, write down its IC50.
1. O=C(O)c1cc(Cl)ccc1Nc1ccc2c(ccn2-c2ccccc2)c1
2. O=C(O)c1cc(C2CC2)cnc1Nc1ccc2c(ccn2Cc2c(F)cccc2F)c1
3. O=C(O)c1cc(C2CC2)cnc1Nc1ccc2c(-c3ccccc3)c[nH]c2c1
4. O=C(O)c1cc(C2CC2)ccc1Nc1ccc2c(ccn2C(=O)c2ccc(Cl)cc2)c1
5. COc1ccccc1-c1cc(Nc2ncc(C3CC3)cc2C(=O)O)cc2ccn(C)c12
6. Cn1ccc2cc(Nc3ncc(C4CC4)cc3C(=O)O)cc(/C=C/C(C)(C)C)c21
7. O=C(O)c1cc(C2CC2)cnc1Nc1ccc2c(ccn2Cc2cccnc2)c1
8. N#Cc1ccc(Cn2ccc3cc(Nc4ncc(C5CC5)cc4C(=O)O)ccc32)cc1

Return:
1: ≤ 10 nM; 2: ≤ 10 nM; 3: 10 to 100 nM; 4: 10 to 100 nM; 5: ≤ 10 nM; 6: ≤ 10 nM; 7: 10 to 100 nM; 8: 10 to 100 nM

For every listed record, write down its IC50.
1. O=C(O)c1cc(C2CC2)cnc1Nc1ccc2c(-c3ccccc3)cn(CC3CC3)c2c1
2. Cc1ccc(Cn2ccc3cc(Nc4ncc(C5CC5)cc4C(=O)O)ccc32)cc1
3. O=C(O)c1cc(C2CC2)ccc1Nc1ccc2c(c1)sc(=O)n2Cc1ccccc1

Return:
10 to 100 nM
≤ 10 nM
≤ 10 nM

----------
System: normal human neonatal foreskin epidermal keratinocytes (NHEK-F)
Assay: Cell proliferation inhibition test
Assay type: cell-based
Conditions: Keratinocyte, 72 h, NHEK-F cells, three days incubation, ATPlite or CellTiterGlo, read-out: IC50 (concentration of the compound at which the cell count is reduced by 50%)
For each of the molecules below, state its IC50.

[[record]]
molecule = "Cn1ccc2cc(Nc3ncc(C4CC4)cc3C(=O)O)cc(-c3ccccc3Cl)c21 [Example 488]"
experimental_system = "normal human neonatal foreskin epidermal keratinocytes (NHEK-F)"
result = "≤ 10 nM"


For every listed record, write down its IC50.
1. O=C(O)c1cc(Cl)cnc1Nc1ccc2c(ccn2Cc2cccc(OCC(F)(F)F)c2)c1 [Example 357]
2. O=C(O)c1cc(C2CC2)cnc1Nc1ccc2c(c1)sc(=O)n2Cc1ccccc1 [Example 75]
3. O=C(O)c1cc(Cl)ccc1Nc1ccc2c(c1)CCN2c1ccccc1 [Example 283]
4. Cc1ccccc1Cn1ccc2cc(Nc3ncc(C4CC4)cc3C(=O)O)ccc21 [Example 455]
5. COc1ccc(-n2ccc3cc(Nc4ccc(C5CC5)cc4C(=O)O)ccc32)cc1 [Example 373]
6. CC(C)Cn1ncc2cc(Nc3ncc(C4CC4)cc3C(=O)O)ccc21 [Example 541]

Return:
1. 10 to 100 nM
2. ≤ 10 nM
3. ≤ 10 nM
4. ≤ 10 nM
5. ≤ 10 nM
6. 10 to 100 nM

For every listed record, write down its IC50.
1. Cc1c(Nc2ncc(C3CC3)cc2C(=O)O)ccc2c1ccn2Cc1ccccc1 [Example 573]
2. O=C(O)c1cc(C2CC2)cnc1Nc1ccc2c(ccn2Cc2cc(F)ccc2F)c1 [Example 641]

Return:
["≤ 10 nM", "≤ 10 nM"]

----------
For each of the compounds below, state its IC50.
System: normal human neonatal foreskin epidermal keratinocytes (NHEK-F)
Test: Cell proliferation inhibition test
Assay type: cell-based
Conditions: Keratinocyte, 72 h, NHEK-F cells, three days incubation, ATPlite or CellTiterGlo, read-out: IC50 (concentration of the compound at which the cell count is reduced by 50%)

Sample answers from the record:
[[record]]
compound = "O=C(O)c1cc(Cl)ccc1Nc1ccc2c(ccn2-c2cnc3ccccc3c2)c1 [Example 317]"
result = "≤ 10 nM"

[[record]]
compound = "Cc1ccccc1-c1cc(Nc2ncc(C3CC3)cc2C(=O)O)cc2ccn(C)c12 [Example 476]"
result = "≤ 10 nM"

[[record]]
compound = "O=C(O)c1cc(C2CC2)cnc1Nc1ccc2c(ccn2CC2CC2)c1 [Example 146]"
result = "10 to 100 nM"

[[record]]
compound = "O=C(O)c1cc(Cl)ccc1Nc1ccc2c(ccn2-c2ccc(F)cc2)c1 [Example 331]"
result = "≤ 10 nM"

[[record]]
compound = "CN(C)c1ccc(Cn2ccc3cc(Nc4ccc(C5CC5)cc4C(=O)O)ccc32)cc1 [Example 198]"
result = "≤ 10 nM"


For every listed record, write down its IC50.
1. O=C(O)c1cc(Cl)cnc1Nc1ccc2c(ccn2Cc2ccccc2)c1 [Example 90]
2. O=C(O)c1cc(Cl)ccc1Nc1ccc2c(ccn2-c2ccccc2C(F)(F)F)c1 [Example 337]
3. COCCn1ccc2cc(Nc3ncc(C4CC4)cc3C(=O)O)ccc21 [Example 129]
4. COC(=O)c1cc(C2CC2)cnc1Nc1ccc2c(c1)c(-c1cccc(C#N)c1)cn2C [Example 630]
5. O=C(O)c1cc(C2CC2)cnc1Nc1ccc2c(c1)OCC(=O)N2c1ccccc1 [Example 399]
6. O=C(O)c1cc(Cl)ccc1Nc1ccc2c(ccn2Cc2cccc(OC(F)F)c2)c1 [Example 277]
7. O=C(O)c1cc(Cl)ccc1Nc1ccc2c(c1)sc(=O)n2Cc1ccccc1 [Example 67]
8. O=C(O)c1nc(C2CC2)ccc1Nc1ccc2c(ccn2Cc2ccccc2)c1 [Example 210]

Return:
10 to 100 nM
≤ 10 nM
100 to 1000 nM
100 to 1000 nM
100 to 1000 nM
≤ 10 nM
10 to 100 nM
10 to 100 nM

For every listed record, write down its IC50.
1. O=C(O)c1cc(C2CC2)cnc1Nc1ccc2c(ccn2CCCc2ccccc2)c1 [Example 618]
2. O=C(O)c1cc(C2CC2)cnc1Nc1ccc2c(ccn2C(=O)C2CCCCC2)c1 [Example 583]

Return:
≤ 10 nM
10 to 100 nM

For every listed record, write down its IC50.
1. O=C(O)c1cc(Cl)ccc1Nc1cccc2c1ccn2Cc1ccccc1 [Example 6]
2. O=C(O)c1cc(C2CC2)cnc1Nc1ccc2c(-c3ccccc3)nccc2c1 [Example 527]

Return:
1: 10 to 100 nM; 2: ≤ 10 nM

For every listed record, write down its IC50.
1. Cn1ccc2cc(Nc3ncc(C4CC4)cc3C(=O)O)cc(-c3ccccc3)c21 [Example 222]
2. O=C(O)c1cc(Cl)ccc1Nc1ccc2c(c1)ncc(=O)n2Cc1ccccc1 [Example 69]
3. CCCCCn1ccc2cc(Nc3ncc(C4CC4)cc3C(=O)O)cc(CCCOC)c21 [Example 610]
4. CS(=O)(=O)NC(=O)c1cc(C2CC2)cnc1Nc1ccc2c(ccn2-c2ccccc2)c1 [Example 159]

Return:
1. ≤ 10 nM
2. 100 to 1000 nM
3. ≤ 10 nM
4. 10 to 100 nM

For every listed record, write down its IC50.
1. O=C(O)c1cc(Cl)ccc1Nc1ccc2c(ccn2Cc2ccccc2)c1 [Example 2]
2. Cc1ccc(-c2cn(C)c3ccc(Nc4ncc(C5CC5)cc4C(=O)O)cc23)cc1 [Example 571]
3. O=C(O)c1cc(Cl)ccc1Nc1ccc2c(ccn2Cc2ccccn2)c1 [Example 341]

Return:
≤ 10 nM
10 to 100 nM
10 to 100 nM

For every listed record, write down its IC50.
1. O=C(O)c1cc(C2CC2)cnc1Nc1cccc2c(-c3ccccc3)ncnc12 [Example 531]
2. Cc1ccc(-n2ccc3cc(Nc4ccc(C5CC5)cc4C(=O)O)ccc32)nn1 [Example 102]
3. O=C(O)c1cc(Cl)ccc1Nc1ccc2ccn(Cc3ccccc3)c2c1 [Example 4]
4. O=C(O)c1cc(C2CC2)cnc1Nc1cccc2c1ccn2CC1CCCCC1 [Example 429]
5. Cn1ccc2cc(Nc3ncc(C4CC4)cc3C(=O)O)cc(CCC3CC3)c21 [Example 470]
6. O=C(O)c1cc(C2CC2)ccc1Nc1ccc2c(ccn2Cc2ccc(N3CCCCC3)cc2)c1 [Example 194]
7. O=C(O)c1cc(C2CC2)cnc1Nc1ccc2c(ccn2-c2cccc(F)c2)c1 [Example 231]

Return:
1: 10 to 100 nM; 2: 10 to 100 nM; 3: 100 to 1000 nM; 4: ≤ 10 nM; 5: ≤ 10 nM; 6: ≤ 10 nM; 7: ≤ 10 nM

For every listed record, write down its IC50.
1. O=C(O)c1cc(Cl)ccc1Nc1ccc2c(ccn2-c2ccncc2)c1 [Example 315]
2. O=C(O)c1cc(C2CC2)ccc1Nc1ccc2c(ccn2-c2ccc(C(F)(F)F)cc2)c1 [Example 375]
3. N#Cc1cccc(Cn2ccc3cc(Nc4ncc(C5CC5)cc4C(=O)O)ccc32)c1 [Example 453]
4. O=C(O)c1cc(C2CC2)cnc1Nc1cnc2c(ccn2CC2CCCCC2)c1 [Example 549]

Return:
["10 to 100 nM", "≤ 10 nM", "10 to 100 nM", "≤ 10 nM"]
